# System: pigweed
# EXPERIMENT_SUMMARY: Test B pre-/postemergence herbicide test
# Format: in vivo, Amaranthus retroflexus
# RECORDED_CONDITIONS: 125 g ai/ha; 0 is no effect, 100 is complete control; preemergence
# note: boundary value 60 maps to not met; Plant response rating (0 to 100 scale), Pigweed below it maps to met

>  <SMILES_REPRESENTATION>
Cn1nc(C(C)(C)C)cc1C(=O)Nc1cccc(C(=O)NC2CC2)n1

>  <ASSIGNED_CLASS>
met

$$$$
>  <SMILES_REPRESENTATION>
Cc1nn(C(C)(C)C)nc1C(=O)Nc1cccc(C(=S)N(C)C)c1

>  <ASSIGNED_CLASS>
not met

$$$$
>  <SMILES_REPRESENTATION>
CN(C)C(=O)c1cccc(NC(=O)c2nn(C(C)(C)C)nc2Br)c1

>  <ASSIGNED_CLASS>
not met

$$$$
>  <SMILES_REPRESENTATION>
C#CCNC(=O)c1ccc(F)c(NC(=O)c2nn(C(C)(C)C)nc2CC)c1

>  <ASSIGNED_CLASS>
met

$$$$

Shift focus to the following entry.
Strictly below 60: is that where Plant response rating (0 to 100 scale), Pigweed of `CCN(C)C(=O)c1cccc(NC(=O)c2nn(C(C)C)nc2C)c1` sits?
met
